Below is a list of entries, each paired with its recorded pKd value.
target_or_test_system: T1, human TIGIT on cells (human, UniProt Q495A1 22-141)
T1 construct: also called Expi293 human TIGIT over-expressing cells
T1 sequence: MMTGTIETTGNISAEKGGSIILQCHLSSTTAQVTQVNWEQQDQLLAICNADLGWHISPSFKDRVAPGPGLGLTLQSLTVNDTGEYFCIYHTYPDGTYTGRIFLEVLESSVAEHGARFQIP
measurement_protocol: FACS titration of AF647-labelled mAb on human effector memory CD8+ T cells, Donor 321
// field semantics: pKd = negative decimal log of concentration (mol/L)

[
  {
    "binder": "BM29 hIgG4 (antibody, V domains shown, benchmark anti-human TIGIT antibody, human IgG4 with S241P; also called BM29-H4; US2016/0176963A1 Clone 22G2 as hIgG4) VH: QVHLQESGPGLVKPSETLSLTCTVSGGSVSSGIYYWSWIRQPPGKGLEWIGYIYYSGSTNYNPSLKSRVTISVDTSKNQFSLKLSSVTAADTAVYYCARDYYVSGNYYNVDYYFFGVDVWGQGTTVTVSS VL: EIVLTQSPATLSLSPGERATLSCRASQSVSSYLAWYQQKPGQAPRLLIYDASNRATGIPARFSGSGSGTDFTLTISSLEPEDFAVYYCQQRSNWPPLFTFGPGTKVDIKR",
    "pKd": 9.06
  },
  {
    "binder": "CHA.9.547.13.H4(S241P) (antibody, human IgG4, V domains shown, humanized hybridoma antibody, human IgG4 (S241P)) VH: EVQLVESGGGLVQPGGSLRLSCAASGFTFSSYIMSWVRQAPGKGLEWVATISGGGTNTYYADSVKGRFTISRDNSKNTLYLQMNSLRAEDTAVYYCAKWLLSYYAMDYWGQGTLVTVSS VL: DIQMTQSPSSLSASVGDRITITCRASQNINVWLSWYQQKPGKAPKLLIYKASKSHTGVPSRFSGSGSGTDFTLTISSLQPEDFATYYCQQGQSYPYTFGQGTKLEIK",
    "pKd": 8.70
  }
]

Now for another entry.
// pKd lookup, key: CPA.9.083.H4(S241P) (antibody, human IgG4, V domains shown) VH: EVQLVETGGGLIQPGRSLRLSCAASGFTFSSYAMHWVRQAPGKGLEWVAVISYDGTPVYYADSVKGRFTISRDNSKNTLYLQMNSLRAEDTAVYYCARDPLPLHYYGMDVWGQGTTVTVSS VL: QSALTQPRSASGNPGQRVTISCSGSSSNMGRRPVNWYQQIPGTAPKLLIYSQNQRPSGVPDRFSGSQSGTSASLTISGLQSEDEAEYFCAVWDGDRRSLQLGGGTQLAVLG 9.89
